Molecular target: T1, human CD45 ectodomain (Homo sapiens, UniProt P08575)
T1 construct: purified human, rhesus or cynomolgus CD45 ectodomain
T1 sequence (P08575 26-577): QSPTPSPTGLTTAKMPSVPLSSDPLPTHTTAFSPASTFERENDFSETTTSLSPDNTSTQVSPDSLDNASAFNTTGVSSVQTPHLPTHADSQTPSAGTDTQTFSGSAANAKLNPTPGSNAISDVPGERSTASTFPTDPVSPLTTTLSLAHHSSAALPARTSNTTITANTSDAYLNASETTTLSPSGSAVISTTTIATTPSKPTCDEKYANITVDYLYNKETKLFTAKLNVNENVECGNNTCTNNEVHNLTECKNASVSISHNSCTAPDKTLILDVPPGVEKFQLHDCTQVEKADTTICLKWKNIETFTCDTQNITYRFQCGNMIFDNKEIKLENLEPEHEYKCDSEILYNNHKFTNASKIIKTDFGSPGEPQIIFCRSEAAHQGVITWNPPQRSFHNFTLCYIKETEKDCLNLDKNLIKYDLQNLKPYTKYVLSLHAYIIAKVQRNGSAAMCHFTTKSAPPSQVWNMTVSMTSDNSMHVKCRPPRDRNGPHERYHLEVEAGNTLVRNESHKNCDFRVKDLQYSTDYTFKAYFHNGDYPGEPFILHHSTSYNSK
Assay: Biolayer interferometry (BLI, Octet) binding of immobilized IgG to purified CD45 ectodomain
Details: Table 2, Human CD45
Procedure: Antibody binding studies were performed at 25° C. in 1×PBS supplemented with 0.1% w/v bovine serum albumin with a Pall ForteBio Octet Red96 using biolayer interferometry (BLI). The apparent monovalent affinity (KD), apparent association rate (KON), and apparent dissociation rate (KOFF) were determined by local full fitting with a 1:1 binding model as calculated by ForteBio data analysis software version 10 of each IgG to purified human, cynomolgus or rhesus CD45 ectodomain. […]
measurement name: Kdis (s⁻¹)
Provide only the numeric value, understood in s⁻¹.

input: Query: Kdis; subject: Ab2: affinity matured human anti-CD45 IgG derived from Ab1; VH SEQ ID NO:11, VL SEQ ID NO:15 (antibody, V domains shown) VH: EVQLVESGGGLVQPGGSLRLSCAASGFTFEAYSMNWVRQAPGKGLEWVSYISLSGATIHYADSVKGRFTISRDNAKNSLYLQMNSLRAEDTAVYYCARGGQYYYDSSDYGEVAFDIWGQGTMVTVSS VL: DIVMTQSPLSLPVTPGEPASISCRSSQSLVSNGYNYLDWYLQKPGQSPQLLIYFGSSRASGVPDRFSGSGSGTDFTLKISRVEAEDVGVYYCMQRRRTPWSFGGGTKVEIK
output: 2.8e-05

input: Can you look up the measured Kdis of Ab6: affinity matured human anti-CD45 IgG derived from Ab1; VH SEQ ID NO:51, VL SEQ ID NO:55 (antibody, V domains shown) VH: EVQLVESGGGLVQPGGSLRLSCAASGFTFEAYSMNWVRQAPGKGLEWVSYISLSGATIHYADSVKGRFTISRDNAKNSLYLQMNSLRAEDTAVYYCARGGQYYYTSSDYGEVAFDIWGQGTLVTVSS VL: DIVLTQSPLSLPVTPGEPASISCRSSQSLVSSGYNYLDWYLQKPGQSPQLLIYFGSSRASGVPDRFSGSGSGTDFTLKISRVEAEDVGVYYCMQRRRTPWSFGGGTKVEIK for me?
output: 1.73e-05

input: Fill in the blank: the reported Kdis of Ab4: affinity matured human anti-CD45 IgG derived from Ab1; VH SEQ ID NO:31, VL SEQ ID NO:35 (antibody, V domains shown) VH: EVQLVESGGGLVQPGGSLRLSCAASGFTFEAYSMNWVRQAPGKGLEWVSYISLSGATIHYADSVKGRFTISRDNAKNSLYLQMNSLRAEDTAVYYCARGGQYYYTSSDYGEVAFDIWGQGTMVTVSS VL: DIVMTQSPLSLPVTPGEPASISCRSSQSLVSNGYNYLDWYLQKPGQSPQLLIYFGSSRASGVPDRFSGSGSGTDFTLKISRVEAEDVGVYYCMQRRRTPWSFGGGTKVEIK is ____.
output: 3.28e-06

input: I have this molecule here, Ab7: variant of Ab3 with asparagine to serine substitution in CDR-L1; VH SEQ ID NO:61, VL SEQ ID NO:65 (antibody, V domains shown) VH: QVQLVESGGGLVKPGGSLRLSCAASGFTFGGYSMNWVRQAPGKGLEWVSYISISGATITYADSVKGRFTISRDNAKNSLYLQMNSLRAEDTAVYYCARGGQYYYDSSDYGEVAFDIWGQGTMVTVSS VL: DIVMTQSPLSLPVTPGEPASISCRSSQSLVSSGYNYLDWYLQKPGQSPQLLIYFGSSRASGVPDRFSGSGSGTDFTLKISRVEAEDVGVYYCMQRRRTPPFTFGGGTKVEIK , and I need its recorded Kdis.
output: 0.000615

input: Entry under review: Ab5: variant of Ab4 with asparagine to serine substitution in CDR-L1; VH SEQ ID NO:41, VL SEQ ID NO:45 (antibody, V domains shown) VH: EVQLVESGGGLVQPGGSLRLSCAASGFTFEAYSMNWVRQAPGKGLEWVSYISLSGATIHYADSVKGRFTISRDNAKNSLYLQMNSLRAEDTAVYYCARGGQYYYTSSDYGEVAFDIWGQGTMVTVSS VL: DIVMTQSPLSLPVTPGEPASISCRSSQSLVSSGYNYLDWYLQKPGQSPQLLIYFGSSRASGVPDRFSGSGSGTDFTLKISRVEAEDVGVYYCMQRRRTPWSFGGGTKVEIK . Reported Kdis?
output: 3.36e-05

input: Look up Kdis: Ab3: affinity matured human anti-CD45 IgG derived from Ab1; VH SEQ ID NO:21, VL SEQ ID NO:25 (antibody, V domains shown) VH: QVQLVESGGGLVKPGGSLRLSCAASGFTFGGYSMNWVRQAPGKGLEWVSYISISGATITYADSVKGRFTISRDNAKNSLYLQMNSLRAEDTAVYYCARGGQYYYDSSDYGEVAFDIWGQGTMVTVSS VL: DIVMTQSPLSLPVTPGEPASISCRSSQSLVSNGYNYLDWYLQKPGQSPQLLIYFGSSRASGVPDRFSGSGSGTDFTLKISRVEAEDVGVYYCMQRRRTPPFTFGGGTKVEIK
output: 0.000225
